- target of assay: murine macrophage iNOS (Mus musculus (Mouse), UniProt P29477)
- condition summary: ratio of respective Ki values (iNOS/nNOS)
Classification field: Satisfied = Selectivity n/i at or over 300; Not satisfied = Selectivity n/i under 300.

# example entries with known answers
molecule	discrete label
Cl.Cl.Nc1ccc2ccc(CCNCCc3ccc(F)cc3)cc2n1 [Compound 14]	Not satisfied
Cl.Cl.Nc1ccc2ccc(CCNCc3cccc(F)c3)cc2n1 [Compound 6]	Not satisfied
Cl.Cl.Nc1ccc2ccc(CNCCCc3cccc(F)c3)cc2n1 [Compound 9]	Satisfied
Cl.Cl.Nc1ccc2ccc(CNCCc3cccc(F)c3)cc2n1 [Compound 5]	Not satisfied

Please find the next molecule below.
**Q:** Item Cl.Cl.Nc1ccc2ccc(CCNCCc3ccc(Cl)cc3)cc2n1 [Compound 16] with Selectivity n/i of 300 or above?
**A:** Not satisfied

###

Measured pKi on bovine eNOS (Bos taurus (Bovine), UniProt P29473) follows.
// pKi: -log10(molar conc.)

# example entries with known answers
compound	pKi
Cl.Cl.Nc1ccc2ccc(CNCCCc3cccc(F)c3)cc2n1 [Compound 9, Dihydrochloride]	5.43
Cl.Cl.Nc1ccc2ccc(CCNCCc3ccc(F)cc3)cc2n1 [Compound 14, Dihydrochloride]	5.05
Cl.Cl.Nc1ccc2ccc(CCNCCc3ccc(Cl)cc3)cc2n1 [Compound 16, Dihydrochloride]	5.00
Cl.Cl.Nc1ccc2ccc(CNCCc3cccc(F)c3)cc2n1 [Compound 5, Dihydrochloride]	6.31

API: the following record is the query input.
**Q:** Give recorded pKi with bovine eNOS (Bos taurus (Bovine), UniProt P29473) for the following compound: Cl.Cl.Nc1ccc2ccc(CCNCc3cccc(F)c3)cc2n1 [Compound 6, Dihydrochloride]
**A:** 5.11

###

As shown below, each of these compounds has a reported Selectivity n/e value.
- target of assay: bovine eNOS (Bos taurus (Bovine), UniProt P29473)
- method summary: Purified NOS enzyme assay (hemoglobin capture), bovine eNOS
- Assay type: biochemical
- condition summary: ratio of respective Ki values (eNOS/nNOS)
Output: the number by itself.

# example entries with known answers
Cl.Cl.Nc1ccc2ccc(CCNCc3cccc(F)c3)cc2n1 30
Cl.Cl.Nc1ccc2ccc(CNCCCc3cccc(F)c3)cc2n1 62
Cl.Cl.Nc1ccc2ccc(CCNCCc3ccc(Cl)cc3)cc2n1 47
Cl.Cl.Nc1ccc2ccc(CNCCc3cccc(F)c3)cc2n1 6.2

API: the following record is the query input.
**Q:** Which Selectivity n/e value is on record for Cl.Cl.Nc1ccc2ccc(CCNCCc3ccc(F)cc3)cc2n1 ?
**A:** 37

###

- target of assay: rat nNOS (Rattus norvegicus (Rat), UniProt P29476)
- method summary: Purified NOS enzyme assay (hemoglobin capture), rat nNOS
- Assay type: biochemical
- condition summary: purified nNOS; read-out: inhibition of nNOS
parameter: pKi
// pKi: -log10(molar conc.)

**Q:** Which pKi value is on record for Cl.Cl.Nc1ccc2ccc(CNCCc3cccc(F)c3)cc2n1 [Compound 5, Dihydrochloride] ?
**A:** 7.13

###

- target of assay: UniProt:P29476
- method summary: Purified NOS enzyme assay (hemoglobin capture), rat nNOS
- Type: biochemical
- condition summary: rat nNOS; Ki calculated from IC50, average of at least two replicates; read-out: Ki nNOS
parameter: pKi
// pKi: -log10(molar conc.)

compound	endpoint value
Cl.Cl.Nc1ccc2ccc(CCNCCc3ccc(Cl)cc3)cc2n1 [Compound 16, Dihydrochloride]	6.67

API: the following record is the query input.
**Q:** Give recorded pKi with UniProt:P29476 for the following compound: Cl.Cl.Nc1ccc2ccc(CCNCc3cccc(F)c3)cc2n1 [Compound 6, Dihydrochloride]
**A:** 6.60

The values you see were collected from patent US9212144B2.
